The reported measurements were obtained from paper PMC3094553.

# EXPERIMENTAL SYSTEM: the molecule itself
# ASSAY EXPLANATION: SAXS
Each entry below carries its recorded stoichiometry N.

PROTEIN	stoichiometry N
PF1950 (phosphoribosyl transferase) (natural protein) MKKFPAYLASWEDIENWAKAGAWKVLESGWMPDVIVGLARGGWIAARLYCDYLGVKDLVSIKVEHWGVTATPDGRARLKYGAQYDFEGKKVLIVDDITDTGESMSLAYEYMKSRNPAEIRTATLLNIKGSKFVPDYYAKDIDWVWVVFPWNFVEDMINLTNNLFEEKDKLTTDEIISLFKELHGIEVPREKLEEALRMAEKRKIFKFENGFWTKV	2

For this protein ( PF0619 (conserved hypothetical protein) (natural protein) MLVPGRVYLFRIPEGKEIIEFLREFAEKENIKVGIISAIGTLRNPVIGYFMEEEKKYKEISLTGTYELLSLSGNISLKDGKPFVHAHVVLGDSEGRAFGGHLVRGEVFVAEVFVQELEGETLERKPTEHGLALW ), measured stoichiometry N is 3

Recorded result, PF0715 (NADH oxidase) (natural protein) MEFFEVLKKRRSIRRFQDKPVPRELIEKLLEAAFLSPSSYNKRPCHFIVVDDREKLEALSKSKLGASGLKTAPVAIVVTADESKSDVWIEDASIAAEHIHLASYALGLASFWVQIRNRMHNETKTAEEYVRELLNIPENYRVLCIIGVGYPAEDKPPHGNEVFEWEKVSYNEFGKRFK , stoichiometry N: 2

Sure, the documented stoichiometry N for PF1033 (thioredoxin-like fold) (natural protein) MIVIGEKFPEVEVKTTHGVIKLPDHFTKQGKWFMLFSHPADFTPVCTTEFYGLQIRLEKFRELGVEPIGLSVDQVFSHLKWMEWIKEKLGVEIEFPVIADDRGDLAEKLGMIPSGSTITARAVFIVDDKGIIRAIVYYPAEVGRDWDEILRLVKALKISTEKGVALPHKWPNNELIGDKVIVPPASSVEQIKEREEAKAKGEIECYDWWFCYKKLE is 10

Per the record, superoxide reductase (PF1281, SOR) (enzyme) MISETIRSGDWKGEKHVPVIEYEREGELVKVKVQVGKEIPHPNTTEHHIRYIELYFLPEGENFVYQVGRVEFTAHGESVNGPNTSDVYTEPIAYFVLKTKKKGKLYALSYCNIHGLWENEVTLE has stoichiometry N of 4

Sure, the documented stoichiometry N for PF1372 (conserved hypothetical protein) (natural protein) MTEIRYYKIGEDRFKISEDEVARRELRVAKVSDDVIQIQEEVHGIIALVGATSSVNIKKEELKELVKLVREEFGWDI is 4

The measured stoichiometry N associated with ferredoxin (PF1909, Fd) (natural protein) AWKVSVDQDTCIGDAICASLCPDVFEMNDEGKAQPKVEVIEDEELYNCAKEAMEACPVSAITIEEA reads 2
